Hi there, I'd appreciate the recorded CC50 for every entry that follows.
- Tested on: K562
- Protocol Details: Cytotoxicity against human K562 cells by MTT assay
- Type: functional
- Test Settings: read-out: LC50 (the source's name)

Which CC50 reading was recorded for the compound CO[C@@H]1OC(=O)C2=CC[C@H]3[C@]4(C)CC[C@H]5C(C)(C)CCC[C@]5(C)[C@H]4C[C@@H](OC(C)=O)[C@]3(C)[C@H]21 ?
38.4 µM

Field request: CC50 | item: CO[C@@H]1C[C@H]2[C@]3(C)CC[C@H]4C(C)(C)CCC[C@]4(C)[C@H]3C[C@@H](OC(C)=O)[C@]2(C)C2=C1C(=O)N(CC(=O)[O-])[C@H]2OC.[Na+]
27 µM

Returns the measured CC50 for the input compound. Input: CO[C@@H]1C[C@H]2[C@]3(C)CC[C@H]4C(C)(C)CCC[C@]4(C)[C@H]3C[C@@H](OC(C)=O)[C@]2(C)C2=C1C(=O)O[C@H]2O
36.7 µM

Sample CO[C@@H]1OCC2=CC[C@H]3[C@]4(C)CC[C@H]5C(C)(C)CCC[C@]5(C)[C@H]4C[C@@H](O)[C@]3(C)[C@H]21 — what was its CC50?
24.6 µM

May I ask what CC50 has been recorded for CC(=O)OC[C@]12CCCC(C)(C)[C@@H]1CC[C@]1(C)[C@@H]2C[C@@H](O)[C@]2(C)[C@@H]3C(=CC[C@@H]12)CO[C@H]3O ?
19.5 µM

Which CC50 is listed for CC(=O)O[C@@H]1C[C@@H]2[C@@]3(C)CCCC(C)(C)[C@@H]3CC[C@@]2(C)[C@@H]2CC=C3CO[C@@H](O)[C@@H]3[C@@]12C ?
31.3 µM

Recorded CC50 of COc1cccc2c1C(=O)c1c(O)c3c(c(O)c1C2=O)C[C@@](O)(C(=O)CO)C[C@@H]3O[C@H]1C[C@H](N)[C@H](O)[C@H](C)O1 [DOXORUBICIN] , please.
9.7 µM

# get_value(readout='CC50', item= CO[C@@H]1OCC2=CC[C@H]3[C@]4(C)CC[C@H]5C(C)(C)CCC[C@]5(C)[C@H]4C[C@@H](OC(C)=O)[C@]3(C)[C@H]21 )
> 100 µM

# get_value(readout='CC50', item= CO[C@@H]1C[C@H]2[C@]3(C)CC[C@H]4C(C)(C)CCC[C@]4(C)[C@H]3C[C@@H](OC(C)=O)[C@]2(C)C2=C1[C@H](O)OC2=O (mixture of isomers) )
14.8 µM

Quick one: CC50 of CC(=O)OC[C@]12CCCC(C)(C)[C@@H]1CC[C@]1(C)[C@@H]2C[C@@H](OC(C)=O)[C@]2(C)[C@@H]3C(=CC[C@@H]12)CO[C@H]3O ?
39.5 µM

For the compound shown here, C[C@@]1(CO)CCC[C@]2(C)[C@H]3C[C@@H](O)[C@]4(C)[C@H]5COC(=O)C5=CC[C@H]4[C@]3(C)CC[C@@H]12 , give the reported CC50.
31.1 µM

Give its CC50 value. Item: CC(=O)O[C@@H]1C[C@@H]2[C@@]3(C)CCCC(C)(C)[C@@H]3CC[C@@]2(C)[C@@H]2CC=C3C(=O)O[C@@H](O)[C@@H]3[C@@]12C
28.3 µM
